// provenance: patent US20250250357A1

experimental-target: T1, human MSLN-R2-his protein (human, UniProt Q13421 391-486)
T1 construct: it is put last here; also called human MSLN-R2 protein; hMSLN-R2-his; not shown: His tag
T1 sequence (Q13421 other isoform, or with tags, fused parts or gaps): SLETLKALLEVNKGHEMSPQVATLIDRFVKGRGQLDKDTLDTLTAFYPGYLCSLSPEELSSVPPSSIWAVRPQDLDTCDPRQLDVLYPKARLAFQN
test-details: ELISA on coated antigen, no antibody (blank, column 'none')
observed-property: OD450 (OD)
The figure you give is taken to be in OD; do not add the unit.

Tab106 (YP218, hIgG1) (antibody, V domains shown, Control antibody; YP218 VH and VL recombined into human IgG1 CH and CL expression vectors; also called YP218 human IgG1 antibody) VH: QQQLEESGGGLVKPEGSLTLTCKASGFDLGFYFYACWVRQAPGKGLEWIACIYTAGSGSTYYASWAKGRFTISKASSTTVTLQMTSLAAADTATYFCARSTANTRSTYYLNLWGPGTLVTVSS VL: DVVMTQTPASVSEPVGGTVTIKCQASQRISSYLSWYQQKPGQRPKLLIFGASTLASGVPSRFKGSGSGTEYTLTISDLECADAATYYCQSYAYFDSNNWHAFGGGTEVVVRT : 0.07

I would be grateful if you could share the reported OD450 for S009-F7.30.5 (antibody, human IgG1, kappa, V domains shown, Human-murine chimeric antibody, human IgG1 heavy and kappa light constant regions) VH: QVQLQQPKTELVKPGASVKLSCKASGYIFTTYWMHWVKQRPGQGLEWIGNVNPSNGGTMYNEKFERRATLTVDKSSSTADMQLSSLTSEDSAVYYCVPHYIGSRPGFAYWGQGTLVTVSG VL: DIVMTQSQKFMSTSVGDRVSVTCKASQNVGTNVAWYQHKPGQSPKALLYSASYRYSGVPDRFTGSGSGTDFTLTITNVQSEDLAEYFCQQYNSYPLTFGGGTKLEIKR .
0.06

I would be grateful if you could share the reported OD450 for S009-F7.18.10 (antibody, human IgG1, kappa, V domains shown, Human-murine chimeric antibody, human IgG1 heavy and kappa light constant regions) VH: QVQLQQSGAELVRPGTSVKVSCKASGYAFTNYLIEWVKQRPGQGLEWIGVINPGSGGTKYNEKFKGKATLTADKSSSTAYMQLSSLTSEDSAVYFCASDYDYDPFAYWGQGTLVTVSA VL: DIVMTQSHKFMSTSVGDRVSITCKASQDVSTAVAWYQRKPGQSPKLLIYWASTRHTGVPDRFTGSGSGTDYTLTISYMQAEDLALYYCQQHYSTPYTFGGGTKLEIKR .
0.06
